propertyLabel: melting point

>  <molecule>
Cc1cccc2[nH]c(-c3ccccc3[N+](=O)[O-])nc12

>  <propertyLabel>
melting point

>  <measuredValue>
167 to 168 °C

$$$$
>  <molecule>
O=C1c2ccccc2C(=O)c2cc(S(=O)(=O)O)ccc21

>  <propertyLabel>
melting point

>  <measuredValue>
208 to 211 °C

$$$$
>  <molecule>
Cc1nc(-c2ccc(Cl)cc2)oc1COC(C)(C)C(=O)O

>  <propertyLabel>
melting point

>  <measuredValue>
166 to 167 °C

$$$$
>  <molecule>
O=S1(=O)CCON=C1c1c(Cl)cccc1Cl

>  <propertyLabel>
melting point

>  <measuredValue>
180 to 182 °C

$$$$
>  <molecule>
CCCCCCCCCCCCCCCCCC(=O)OCCCCCCCCCCCCCC

>  <propertyLabel>
melting point

>  <measuredValue>
40 °C

$$$$
>  <molecule>
Cc1ccccc1C(=O)CN1C(=O)C(NC(=O)Nc2cccc(-c3nnn[nH]3)c2)N=C(c2ccccc2F)c2cccc(C)c21 (stereo not given)

>  <propertyLabel>
melting point

>  <measuredValue>
216 to 220 °C

$$$$
>  <molecule>
CCOC(=O)Cc1cccc(Cn2ccc(OCc3ccc(F)cc3F)c(Br)c2=O)c1

>  <propertyLabel>
melting point

>  <measuredValue>
95 to 98 °C

$$$$
>  <molecule>
NS(=O)(=O)c1cc(C(=O)O)cc(SCc2ccccc2)c1-c1ccccc1

>  <propertyLabel>
melting point

>  <measuredValue>
114 to 120 °C

$$$$
>  <molecule>
O=C(NC1CCC(OC(=O)N2CCC3(CCCC3)CC2)CC1)C1CCN(C(=O)Oc2ccc(Oc3ccccc3)cc2)CC1 (stereo not given)

>  <propertyLabel>
melting point

>  <measuredValue>
230 to 231 °C

$$$$
>  <molecule>
Cc1cc(-n2c(C)ccc2C)c(C)cc1N=CN(C)C

>  <propertyLabel>
melting point

>  <measuredValue>
90 to 91 °C

$$$$
>  <molecule>
CCCCCCCCSc1cc(SCCCCCCCC)c2ccc3c(SCCCCCCCC)cc(SCCCCCCCC)c4ccc1c2c43

>  <propertyLabel>
melting point

>  <measuredValue>
110 °C

$$$$
>  <molecule>
CCN(CC)C(=O)c1cc(-c2ccccc2)c(=O)n2c1-c1cc(Cl)ccc1CN2

>  <propertyLabel>
melting point

>  <measuredValue>
192 to 194 °C

$$$$
>  <molecule>
Cc1cc(-n2ccnc2)c2cccc(OCc3c(Cl)ccc(S(=O)(=O)N4CCC[C@H]4C(=O)NCCCCCN(C)C)c3Cl)c2n1

>  <propertyLabel>
melting point

>  <measuredValue>
85 °C

$$$$
>  <molecule>
Nc1nc(NC2CCCCC2)nc2c1ncn2C1CCCCC1

>  <propertyLabel>
melting point

>  <measuredValue>
109 to 117 °C

$$$$
>  <molecule>
COc1cc(CCl)ccc1OCc1nc(-c2cccc([N+](=O)[O-])c2)oc1C

>  <propertyLabel>
melting point

>  <measuredValue>
166 to 168 °C

$$$$
>  <molecule>
CCCCOC(=O)COCCCNC(=O)[C@H](C)NC(=O)OCc1ccccc1

>  <propertyLabel>
melting point

>  <measuredValue>
54 to 55 °C

$$$$
>  <molecule>
Brc1ccc(-c2coc(-c3ccccn3)n2)cn1

>  <propertyLabel>
melting point

>  <measuredValue>
85 °C

$$$$
>  <molecule>
CN1Cc2c(C#CC3CC3)ncn2-c2cccc(Cl)c2C1=O

>  <propertyLabel>
melting point

>  <measuredValue>
177 to 178 °C

$$$$
>  <molecule>
O=CNc1ccsc1I

>  <propertyLabel>
melting point

>  <measuredValue>
100 to 107 °C

$$$$
>  <molecule>
CS(=O)(=O)OC[C@@H]1Cc2cc3ccccc3n2C[C@H]1COS(C)(=O)=O (relative stereo)

>  <propertyLabel>
melting point

>  <measuredValue>
139 to 141 °C

$$$$

###

Below, each of the compounds is paired with its reported melting point value.

>  <compound>
Cc1c(CNCC2CCOCC2)[nH]c2ccc(NC(=O)c3ccc(OC[C@@H]4CCCO4)cc3)cc12

>  <melting point>
146 to 147 °C

$$$$
>  <compound>
CC1(C)C(=O)C(c2ccccc2)=C1c1ccc(S(C)(=O)=O)cc1

>  <melting point>
145 to 146 °C

$$$$
>  <compound>
COc1cc(OCCCN2CCC(c3n[nH]c4cc(F)ccc34)CC2)ccc1C(C)=O

>  <melting point>
202 to 204 °C

$$$$
>  <compound>
COC(=O)c1ccc(Cc2ccc(O)cc2)cn1

>  <melting point>
184 to 186 °C

$$$$
>  <compound>
O=C(NC1(C(=O)O)CCCC1)C(CS)Cc1ccccc1 (stereo unspecified)

>  <melting point>
165 to 167 °C

$$$$
>  <compound>
CCOP(=O)(OCC)C(Sc1cc(Br)ccc1O)=P(OCC)(OCC)OCC

>  <melting point>
118 to 120 °C

$$$$
>  <compound>
O=C(c1ccc(Cl)cc1)c1c(Cl)cc2n1CCC2C(=O)O (stereo unspecified)

>  <melting point>
197 °C

$$$$
>  <compound>
C=C(Nc1nc(-c2ccccc2)c(-c2nc3ccccc3c(=O)n2-c2ccccc2Cl)s1)c1ccco1

>  <melting point>
> 275 °C

$$$$
>  <compound>
Cc1ccccc1C[C@H](C(=O)Nc1nc2ccccc2o1)c1ccc(S(C)(=O)=O)cc1

>  <melting point>
99 to 102 °C

$$$$
>  <compound>
CS(=O)(=O)Oc1ccc(-n2nc(C#N)cc2-c2ccc(S(C)(=O)=O)cc2)cc1

>  <melting point>
195 to 196 °C

$$$$
>  <compound>
Cc1c(Cl)ccc(C(=O)c2cnn(C)c2O)c1Cl

>  <melting point>
131 to 135 °C

$$$$
>  <compound>
Cc1ccc2c(cc(CCCC(=O)O)n2S(=O)(=O)c2ccccc2)n1

>  <melting point>
172 to 180 °C

$$$$
>  <compound>
CN1C(=O)C(=O)NCC1(CCO)c1ccc(Cl)c(Cl)c1 (stereo unspecified)

>  <melting point>
260 °C

$$$$
>  <compound>
CC(=O)NC(C)COc1c(C)cccc1C (stereo unspecified)

>  <melting point>
85 to 85.8 °C

$$$$
>  <compound>
O=C(O)[C@@H]1Cc2ccccc2N1c1ccc(Cl)nn1

>  <melting point>
211 to 212 °C

$$$$
>  <compound>
CCOC(=O)c1cc(=O)c2cccc(Br)c2o1

>  <melting point>
124 to 126 °C

$$$$
>  <compound>
Cc1ccc(C(=O)C(=C2NCCCS2)[N+](=O)[O-])cc1

>  <melting point>
141 to 143 °C

$$$$
>  <compound>
CC(C)C1NC(=O)CN1C(=O)CNC(=O)CN1CCCC1=O (stereo unspecified)

>  <melting point>
104 to 106 °C

$$$$
>  <compound>
CS(=O)(=O)c1ccc(-c2[nH]c3ccc(Cl)cc3c2-c2ccc(Cl)cc2)cc1

>  <melting point>
281 to 283 °C

$$$$
>  <compound>
N#CC1=C(c2ccccc2)Nc2n[nH]cc2C1c1cccc2nsnc12 (stereo unspecified)

>  <melting point>
258 °C

$$$$
>  <compound>
CCN(CC)C(=N)N[N+](=O)[O-]

>  <melting point>
96 to 97 °C

$$$$

###

>  <compound>
CC(O)CSc1cc(C(C)(C)C)c(O)c(C(C)(C)C)c1 (stereo not drawn)

>  <melting point>
82 °C

$$$$
>  <compound>
C=CCOC(=O)c1c(C)nc2c(cnn2Cc2ccccc2)c1N

>  <melting point>
108 °C

$$$$
>  <compound>
Cc1ccc(C2C(=O)CC(C)(C)CC2=O)cc1

>  <melting point>
200 to 202 °C

$$$$
>  <compound>
CC(O)=C(C#N)C(=O)c1ccc(F)c(F)c1

>  <melting point>
51 to 54 °C

$$$$
>  <compound>
O=C1CC(c2ccccc2)c2cc(C(c3ccc(Cl)cc3)n3ccnc3)ccc2N1 (stereo not drawn)

>  <melting point>
225 °C

$$$$
>  <compound>
CN1CCC(c2c[nH]c3ccc(NC(=O)c4ccccn4)nc23)CC1

>  <melting point>
221 to 223 °C

$$$$
>  <compound>
CCCCc1ccc(COC(=O)NC2CN3CCC2CC3)cc1 (stereo not drawn)

>  <melting point>
174 to 175 °C

$$$$
>  <compound>
NC(=C[N+](=O)[O-])N1CCCC1

>  <melting point>
120 to 125 °C

$$$$
>  <compound>
O=C(N[C@H](Cc1ccc(F)cc1)[C@@H](O)c1ccc(C(F)(F)F)cc1)c1cccc2ccccc12 (racemic)

>  <melting point>
207 to 208 °C

$$$$
>  <compound>
COc1ccc(C(=O)CCCCCl)cc1S(=O)(=O)NC(C)C

>  <melting point>
122 to 124 °C

$$$$
>  <compound>
CN(C)C1CC=C(c2c[nH]c3ccc([N+](=O)[O-])cc23)CC1 (stereo not drawn)

>  <melting point>
234 to 236 °C

$$$$
>  <compound>
O=C(O)c1cccc(N2CCc3ccccc32)c1

>  <melting point>
168 to 170 °C

$$$$
>  <compound>
O=C(c1ccccc1)c1ccc2n1CCCCC2C(=O)O (stereo not drawn)

>  <melting point>
163 to 165 °C

$$$$
>  <compound>
O=C(O)Cc1ccc(OCc2ccc(Cl)cc2C(=O)O)cc1

>  <melting point>
205 to 208 °C

$$$$
>  <compound>
CCCCC#CCCOc1cc(/C=C/C(=O)Nc2ccccc2C(=O)O)ccc1OC

>  <melting point>
157 to 158 °C

$$$$
>  <compound>
CCc1c(C(=O)c2cc(C)cc(C)c2)n(CCC2=CCCC2)c(=O)[nH]c1=O

>  <melting point>
211 to 213 °C

$$$$
>  <compound>
O=C(O)c1ccc(NCC2CCCCCCC2)cc1

>  <melting point>
160 to 162 °C

$$$$
>  <compound>
COc1ccc(N2N=C(N)CC2c2ccccc2)cc1 (stereo not drawn)

>  <melting point>
164 to 166 °C

$$$$
>  <compound>
CSc1sc2[nH]c(=O)c(=O)[nH]c2c1C#N

>  <melting point>
> 225 °C

$$$$
>  <compound>
Cn1cc(-c2cccc(Cl)c2)c(=S)c(-c2cccc(Cl)c2)c1

>  <melting point>
210 to 212 °C

$$$$
>  <compound>
Cc1c(C(F)(F)F)cnn(-c2cc(OCCC3OCCCO3)c(Cl)cc2F)c1=O

>  <melting point>
112 °C

$$$$
>  <compound>
COc1c(C)c(C)c2c(c1C)C(CO)C(C)(C)O2 (stereo not drawn)

>  <melting point>
79 to 81 °C

$$$$
>  <compound>
CSc1ccc(C(=O)c2ccc(SC)cc2O)cc1

>  <melting point>
113 to 114 °C

$$$$
